appliedConditions: 288.15 K; 101.3 kPa; Liquid
readoutLabel: mass density (kg/m3)

1. CO
796.406
2. CC(C)O
789.342
3. CCO
794.044
4. CCCCO
813.77
5. CCCO
809.009
6. CCCCCO
818.801
7. CC(C)CO
805.6
8. CCOC(=O)CC(=O)OCC [diethyl 1,3-propanedioate]
1060.33

* * *

testDescription: xn = mol fraction of the nth substance listed
appliedConditions: 328.15 K; 101 kPa; Liquid; x1 = 0.4999
readoutLabel: mass density (kg/m3)

1. CCOC(=O)CC(=O)OCC [diethyl 1,3-propanedioate] + CCCCCO
917.475
2. CCOC(=O)CC(=O)OCC [diethyl 1,3-propanedioate] + CC(C)O
924.508
3. CCOC(=O)CC(=O)OCC [diethyl 1,3-propanedioate] + CCCO
934.134
4. CCOC(=O)CC(=O)OCC [diethyl 1,3-propanedioate] + CCO
943.637

* * *

testDescription: xn = mol fraction of the nth substance listed
appliedConditions: 288.15 K; 101 kPa; Liquid; x1 = 0.5501
readoutLabel: mass density (kg/m3)

1) CCOC(=O)CC(=O)OCC [diethyl 1,3-propanedioate] + CC(C)O
978.638
2) CCOC(=O)CC(=O)OCC [diethyl 1,3-propanedioate] + CCCCO
976.114
3) CCOC(=O)CC(=O)OCC [diethyl 1,3-propanedioate] + CCO
996.293
4) CCOC(=O)CC(=O)OCC [diethyl 1,3-propanedioate] + CCCCCO
967.903

* * *

testDescription: xn = mol fraction of the nth substance listed
appliedConditions: 328.15 K; 101 kPa; Liquid; x1 = 0.1001
readoutLabel: mass density (kg/m3)

1. CCOC(=O)CC(=O)OCC [diethyl 1,3-propanedioate] + CCCCO
816.824
2. CCOC(=O)CC(=O)OCC [diethyl 1,3-propanedioate] + CC(C)O
798.938
3. CCOC(=O)CC(=O)OCC [diethyl 1,3-propanedioate] + CCO
816.063
4. CCOC(=O)CC(=O)OCC [diethyl 1,3-propanedioate] + CCCO
818.439

* * *

testDescription: xn = mol fraction of the nth substance listed
appliedConditions: 313.15 K; 101 kPa; Liquid; x1 = 0.1001
readoutLabel: mass density (kg/m3)

1) CCOC(=O)CC(=O)OCC [diethyl 1,3-propanedioate] + CCCCO
829.747
2) CCOC(=O)CC(=O)OCC [diethyl 1,3-propanedioate] + CCCO
832.128
3) CCOC(=O)CC(=O)OCC [diethyl 1,3-propanedioate] + CCO
830.589
4) CCOC(=O)CC(=O)OCC [diethyl 1,3-propanedioate] + CC(C)O
813.707

* * *

testDescription: xn = mol fraction of the nth substance listed
appliedConditions: 298.15 K; 101 kPa; Liquid; x1 = 0.4999
readoutLabel: mass density (kg/m3)

1. CCOC(=O)CC(=O)OCC [diethyl 1,3-propanedioate] + CCCCCO
946.568
2. CCOC(=O)CC(=O)OCC [diethyl 1,3-propanedioate] + CCO
975.577
3. CCOC(=O)CC(=O)OCC [diethyl 1,3-propanedioate] + CC(C)O
956.373
4. CCOC(=O)CC(=O)OCC [diethyl 1,3-propanedioate] + CCCO
965.148

* * *

appliedConditions: 313.15 K; 101.3 kPa; Liquid
readoutLabel: mass density (kg/m3)

1) CCOC(=O)CC(=O)OCC [diethyl 1,3-propanedioate]
1033.5
2) CCCCCO [pentan-1-ol]
800.264
3) CCCCO [butan-1-ol]
794.488
4) CO [methanol]
772.74
5) CCO [ethanol]
772.42
6) CC(C)CO [2-methyl-1-propanol]
786.069
7) CC(C)O [propan-2-ol]
767.922
8) CCCO [propan-1-ol]
788.687

* * *

appliedConditions: 328.15 K; 101.3 kPa; Liquid
readoutLabel: mass density (kg/m3)

1. CO [methanol]
758.201
2. CCCCCO [pentan-1-ol]
788.737
3. CCOC(=O)CC(=O)OCC [diethyl 1,3-propanedioate]
1017.34
4. CCO [ethanol]
758.958
5. CC(C)O [propan-2-ol]
754.001
6. CCCO [propan-1-ol]
775.974
7. CCCCO [butan-1-ol]
782.477
8. CC(C)CO [2-methyl-1-propanol]
773.692

* * *

appliedConditions: 298.15 K; 101.3 kPa; Liquid
readoutLabel: mass density (kg/m3)

1. CCOC(=O)CC(=O)OCC [diethyl 1,3-propanedioate]
1049.6
2. CC(C)CO [2-methyl-1-propanol]
797.916
3. CC(C)O [propan-2-ol]
780.99
4. CCCCO [butan-1-ol]
806.137
5. CCCO [propan-1-ol]
800.973
6. CO [methanol]
786.987
7. CCCCCO [pentan-1-ol]
811.465
8. CCO [ethanol]
785.489

* * *

testDescription: xn = mol fraction of the nth substance listed
appliedConditions: 288.15 K; 101 kPa; Liquid; x1 = 0.4999
readoutLabel: mass density (kg/m3)

1) CCOC(=O)CC(=O)OCC [diethyl 1,3-propanedioate] + CCO
986.037
2) CCOC(=O)CC(=O)OCC [diethyl 1,3-propanedioate] + CC(C)O
966.784
3) CCOC(=O)CC(=O)OCC [diethyl 1,3-propanedioate] + CCCO
975.313
4) CCOC(=O)CC(=O)OCC [diethyl 1,3-propanedioate] + CCCCCO
956.145

* * *

testDescription: xn = mol fraction of the nth substance listed
appliedConditions: 313.15 K; 101 kPa; Liquid; x1 = 0.5501
readoutLabel: mass density (kg/m3)

1) CCOC(=O)CC(=O)OCC [diethyl 1,3-propanedioate] + CC(C)O
952.282
2) CCOC(=O)CC(=O)OCC [diethyl 1,3-propanedioate] + CCCCO
951.051
3) CCOC(=O)CC(=O)OCC [diethyl 1,3-propanedioate] + CCO
969.837
4) CCOC(=O)CC(=O)OCC [diethyl 1,3-propanedioate] + CCCCCO
943.506

* * *

testDescription: xn = mol fraction of the nth substance listed
appliedConditions: 298.15 K; 101 kPa; Liquid; x1 = 0.5501
readoutLabel: mass density (kg/m3)

1. CCOC(=O)CC(=O)OCC [diethyl 1,3-propanedioate] + CCCCO
966.141
2. CCOC(=O)CC(=O)OCC [diethyl 1,3-propanedioate] + CC(C)O
968.162
3. CCOC(=O)CC(=O)OCC [diethyl 1,3-propanedioate] + CCCCCO
958.185
4. CCOC(=O)CC(=O)OCC [diethyl 1,3-propanedioate] + CCO
985.767

* * *

testDescription: xn = mol fraction of the nth substance listed
appliedConditions: 288.15 K; 101 kPa; Liquid; x1 = 0.1001
readoutLabel: mass density (kg/m3)

1. CCOC(=O)CC(=O)OCC [diethyl 1,3-propanedioate] + CCCO
854.156
2. CCOC(=O)CC(=O)OCC [diethyl 1,3-propanedioate] + CCCCO
850.611
3. CCOC(=O)CC(=O)OCC [diethyl 1,3-propanedioate] + CCO
854.013
4. CCOC(=O)CC(=O)OCC [diethyl 1,3-propanedioate] + CC(C)O
836.917

* * *

testDescription: xn = mol fraction of the nth substance listed
appliedConditions: 298.15 K; 101 kPa; Liquid; x1 = 0.1001
readoutLabel: mass density (kg/m3)

1. CCOC(=O)CC(=O)OCC [diethyl 1,3-propanedioate] + CCCO
845.431
2. CCOC(=O)CC(=O)OCC [diethyl 1,3-propanedioate] + CC(C)O
827.809
3. CCOC(=O)CC(=O)OCC [diethyl 1,3-propanedioate] + CCO
844.731
4. CCOC(=O)CC(=O)OCC [diethyl 1,3-propanedioate] + CCCCO
842.336

* * *

testDescription: xn = mol fraction of the nth substance listed
appliedConditions: 328.15 K; 101 kPa; Liquid; x1 = 0.5501
readoutLabel: mass density (kg/m3)

1. CCOC(=O)CC(=O)OCC [diethyl 1,3-propanedioate] + CCO
953.695
2. CCOC(=O)CC(=O)OCC [diethyl 1,3-propanedioate] + CCCCO
935.788
3. CCOC(=O)CC(=O)OCC [diethyl 1,3-propanedioate] + CCCCCO
928.648
4. CCOC(=O)CC(=O)OCC [diethyl 1,3-propanedioate] + CC(C)O
936.171

* * *

testDescription: xn = mol fraction of the nth substance listed
appliedConditions: 313.15 K; 101 kPa; Liquid; x1 = 0.4999
readoutLabel: mass density (kg/m3)

1) CCOC(=O)CC(=O)OCC [diethyl 1,3-propanedioate] + CCO
959.71
2) CCOC(=O)CC(=O)OCC [diethyl 1,3-propanedioate] + CC(C)O
940.573
3) CCOC(=O)CC(=O)OCC [diethyl 1,3-propanedioate] + CCCO
949.737
4) CCOC(=O)CC(=O)OCC [diethyl 1,3-propanedioate] + CCCCCO
932.101
